# Lookup of reported pKd keyed by entry
- study system: T1, NLpoly11S
- T1 chain: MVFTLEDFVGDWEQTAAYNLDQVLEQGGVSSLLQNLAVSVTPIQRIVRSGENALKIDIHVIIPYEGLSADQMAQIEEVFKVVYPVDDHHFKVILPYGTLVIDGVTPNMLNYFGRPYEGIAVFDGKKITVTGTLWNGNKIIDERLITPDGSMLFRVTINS
- measurement description: luminescence complementation titration, one-site specific binding
In textbook form, pKd equals minus log to base ten of the concentration in mol/L.

binder: MNVSGWRLFKKISN (other) [NLpep78-HaloTag]
pKd: 7.52

Proceeding to the next binder to report its pKd.
What value of pKd has been recorded for this entry: NVSGWRLFKKISN (other) [HaloTag-NLPep78]
8.14
